Reported Serum Sodium by item:
Tested on: Wistar rats
Assay: Subacute toxicity: water and electrolyte balance (osmolality, sodium, potassium, urinary flow)
Format: in vivo
Conditions: rats, p.o., 14 days at 10% of LD50 (CCl4, APAP: once daily, 3 days); mean ± SEM, n = 6

compound="N#Cc1cn2ccccc2n1 [Compound 2a, imidazo[1,2-a]pyridine-2-carbonitrile]" reported_measurement="142.94 ± 3.88 mEq/L"
compound="N#Cc1nc2ccccn2c1[N+](=O)[O-] [Compound 2b]" reported_measurement="141.65 ± 15.47 mEq/L"
compound="CCOC(=O)c1nc2ccccn2c1[N+](=O)[O-] [Compound 1b]" reported_measurement="155.42 ± 3.63 mEq/L"

Using the record for CC(=O)Nc1ccc(O)cc1 [APAP, acetaminophen, reference compound] , report its Serum Sodium. 138.58 ± 2.37 mEq/L

Also, O=C(O)c1nc2ccccn2c1[N+](=O)[O-] [Compound 3b] please. 144.61 ± 3.41 mEq/L

Also, O=C(O)c1cn2ccccc2n1 [Compound 3a, imidazo[1,2-a]pyridine-2-carboxylic acid] please. 148.12 ± 3.02 mEq/L

Also, CCOC(=O)c1cn2ccccc2n1 [Compound 1a] please. 162.39 ± 5.03 mEq/L

Also, ClC(Cl)(Cl)Cl [CCl4, carbon tetrachloride, reference compound] please. 139.08 ± 1.63 mEq/L
